Sourced from PubChem BioAssay (NCI)

Hi there, I'd appreciate the recorded growth for every entry that follows.
- System: A549/ATCC NSCLC
- Assay info: NCI-60 one-dose screen, 48 h (100 = growth as untreated, 0 = no growth, -100 = all killed)
- Condition label: 10 µM unless noted
The panel holds about 83,000 compounds, 20% with a hit somewhere; the sample as a whole holds those more often.
Report as a plain number; the unit % is understood.

Q. Consider the compound `C=CC(C)(C)n1cc(C2=C(O)C(=O)C(c3cn(C(C)(C)C=C)c4ccccc34)=C(O)C2=O)c2ccccc21` and give its measured growth.
A. 89.4

Q. Find the recorded growth belonging to `CCC(=O)Oc1ccc2ccccc2c1` and report it.
A. 99.4

Q. Requested read-out: growth. Entry: `CCOC(=O)c1c[nH][nH]c1=O`
A. 125

Q. Item `NC(=S)N/N=C/c1ccc(Cl)cc1` has what recorded growth?
A. 106

Q. Would you mind telling me what growth value was observed for `Nc1ncnc(Nc2ccc(C(F)(F)F)cc2)n1` ?
A. 93.6
